system.under.test: Epidermal growth factor receptor (Homo sapiens, UniProt P00533)
Sequence (P00533 whole entry): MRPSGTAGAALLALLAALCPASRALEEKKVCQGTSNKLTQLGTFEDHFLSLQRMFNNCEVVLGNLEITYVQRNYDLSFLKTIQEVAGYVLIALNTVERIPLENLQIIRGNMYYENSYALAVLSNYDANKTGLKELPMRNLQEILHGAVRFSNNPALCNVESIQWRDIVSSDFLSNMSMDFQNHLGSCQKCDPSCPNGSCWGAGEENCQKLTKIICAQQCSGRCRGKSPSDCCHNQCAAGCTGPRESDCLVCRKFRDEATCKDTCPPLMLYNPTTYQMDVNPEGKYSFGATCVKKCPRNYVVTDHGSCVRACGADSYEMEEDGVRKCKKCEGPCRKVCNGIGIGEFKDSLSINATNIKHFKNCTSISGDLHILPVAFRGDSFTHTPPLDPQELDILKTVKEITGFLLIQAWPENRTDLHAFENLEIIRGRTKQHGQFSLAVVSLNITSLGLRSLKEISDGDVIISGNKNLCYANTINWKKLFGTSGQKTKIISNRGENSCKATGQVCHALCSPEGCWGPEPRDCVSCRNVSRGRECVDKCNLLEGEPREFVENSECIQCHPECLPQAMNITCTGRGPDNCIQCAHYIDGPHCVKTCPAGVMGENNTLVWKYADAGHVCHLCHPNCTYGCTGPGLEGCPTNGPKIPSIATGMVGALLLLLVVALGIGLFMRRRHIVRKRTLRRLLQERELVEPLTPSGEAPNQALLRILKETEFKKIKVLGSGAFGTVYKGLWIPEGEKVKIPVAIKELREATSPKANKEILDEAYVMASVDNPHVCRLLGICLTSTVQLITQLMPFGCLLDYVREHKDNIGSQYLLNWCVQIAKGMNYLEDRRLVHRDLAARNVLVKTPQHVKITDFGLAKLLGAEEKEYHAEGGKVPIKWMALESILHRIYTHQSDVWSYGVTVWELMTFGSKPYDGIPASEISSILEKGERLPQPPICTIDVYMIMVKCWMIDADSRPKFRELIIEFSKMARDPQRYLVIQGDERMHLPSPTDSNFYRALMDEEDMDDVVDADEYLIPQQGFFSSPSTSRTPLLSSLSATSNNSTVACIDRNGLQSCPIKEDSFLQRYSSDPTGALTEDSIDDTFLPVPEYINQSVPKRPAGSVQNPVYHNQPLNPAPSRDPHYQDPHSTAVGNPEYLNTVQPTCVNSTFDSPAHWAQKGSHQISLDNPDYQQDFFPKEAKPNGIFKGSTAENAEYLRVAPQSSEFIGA
experimental.details: Inhibition of recombinant EGFR (unknown origin) using PGT as substrate preincubated for 10 mins followed by substrate addition and measured after 1 hr in presence of ATP by ADP-Glo luminescence assay
endpoint: IC50

- COc1cc2ncnc(Nc3ccc(Cl)c(O)c3)c2cc1OC.Cl: 0.84 nM
- COc1cc2ncnc(Nc3ccc(F)c(O)c3)c2cc1OC: 2.55 nM
- COc1cc(Nc2ncnc3cc(OC)c(OC)cc23)c(Cl)cc1Cl: 61.3 nM
- COc1cc2ncnc(Nc3ccc4scnc4c3)c2cc1OC.Cl: 36 nM
- COc1cc2ncnc(Nc3ccc(Cl)c(N)c3)c2cc1OC: 0.46 nM
- CCN(CC)CCOc1cc2ncnc(Nc3cc(OC)c(Cl)cc3Cl)c2cc1OC: > 1000 nM
